assay: Inhibition of HIV1 gp41 assessed as gp41-six-helix bundle formation after 30 mins by sandwich ELISA; set-up: species or system Human immunodeficiency virus 1
measured-endpoint: IC50

Known IC50 results, listed for orientation:
Cc1cc(/C=C/[N+](=O)[O-])c(C)n1-c1cccc(-c2nnn[nH]2)c1; Not Active
Cc1cc(/C=C2\SC(=S)N(c3cccc(C(F)(F)F)c3)C2=O)c(C)n1-c1cccc(-c2nnn[nH]2)c1; Not Active
CCOC(=O)/C(C#N)=C/c1cc(C)n(-c2cccc(-c3nnn[nH]3)c2)c1C; Not Active
Cc1cc(C=C(C#N)C#N)c(C)n1-c1cccc(-c2nnn[nH]2)c1; Not Active

Kindly consider the entry below.
Let me know recorded IC50 for Cc1cc(/C=C2\SC(=S)N(c3cccc(Br)c3)C2=O)c(C)n1-c1cccc(-c2nnn[nH]2)c1 , thanks.
Not Active

====

Kindly supply the reported CC50 at 96 h values for the records listed here.
assay: Cytotoxicity against human MT2 cells after 4 days using XTT assay; format: cell-based
Record the value in µM, omitting the unit from your answer.

Item Cc1cc(/C=C2\SC(=S)N(c3ccc(C(F)(F)F)cc3)C2=O)c(C)n1-c1cccc(-c2nnn[nH]2)c1 : provide CC50 at 96 h
27.1

Input Cc1cc(/C=C2\SC(=S)N(c3ccc(O)cc3)C2=O)c(C)n1-c1cccc(-c2nnn[nH]2)c1 , output reported CC50 at 96 h.
45.6

Identify measured CC50 at 96 h associated with COc1cccc(N2C(=O)/C(=C/c3cc(C)n(-c4cccc(-c5nnn[nH]5)c4)c3C)SC2=S)c1
40.6

State, in one line, measured CC50 at 96 h of Cc1cc(/C=C2\SC(=S)N(c3cccc(Br)c3)C2=O)c(C)n1-c1cccc(-c2nnn[nH]2)c1
22.6

// fetch CC50 at 96 h given entry Cc1cc(/C=C2\SC(=S)N(c3cccc(O)c3)C2=O)c(C)n1-c1cccc(-c2nnn[nH]2)c1
35.6

Assign CC50 at 96 h to the following record: CCOC(=O)/C(C#N)=C/c1cc(C)n(-c2cccc(-c3nnn[nH]3)c2)c1C
76.8

State its CC50 at 96 h: COc1ccc(N2C(=O)N/C(=C\c3cc(C)n(-c4cccc(-c5nnn[nH]5)c4)c3C)C2=O)cc1
101

Give recorded CC50 at 96 h. Cc1cc(/C=C2\SC(=S)N(CCc3ccccc3)C2=O)c(C)n1-c1cccc(-c2nnn[nH]2)c1
45.7

Give CC50 at 96 h for the following molecule: Cc1cc(/C=C2\SC(=S)N(Cc3ccccc3)C2=O)c(C)n1-c1cccc(-c2nnn[nH]2)c1
150

====

assay: Cytotoxicity against human MT2 cells after 4 days using XTT assay; type: cell-based
For each entry below, report its CC50 at 96 h value.
Kindly provide the numeric value in µM only, without the unit symbol.

Answer with the recorded CC50 at 96 h of Cc1cc(/C=C2\NC(=O)N(c3cccc(C(F)(F)F)c3)C2=O)c(C)n1-c1cccc(-c2nnn[nH]2)c1 only.
76.5

Give the measured CC50 at 96 h for COc1ccc(N2C(=O)/C(=C/c3cc(C)n(-c4cccc(-c5nnn[nH]5)c4)c3C)SC2=S)cc1
87

Let me know recorded CC50 at 96 h for Cc1cc(/C=C2\SC(=S)N(c3cccc(C(F)(F)F)c3)C2=O)c(C)n1-c1cccc(-c2nnn[nH]2)c1 , thanks.
15.8

Give recorded CC50 at 96 h. Cc1cc(/C=C/[N+](=O)[O-])c(C)n1-c1cccc(-c2nnn[nH]2)c1
78.8

For the compound Cc1cc(/C=C2\SC(=S)N(c3ccccc3)C2=O)c(C)n1-c1cccc(-c2nnn[nH]2)c1 , report CC50 at 96 h.
61

Supply CC50 at 96 h value. Item: CCOC(=O)C(=Cc1cc(C)n(-c2cccc(-c3nnn[nH]3)c2)c1C)C(=O)OCC
77.4

For the compound Cc1cc(/C=C2\SC(=S)N(c3cccc([N+](=O)[O-])c3)C2=O)c(C)n1-c1cccc(-c2nnn[nH]2)c1 , give its measured CC50 at 96 h value.
77

Name the recorded CC50 at 96 h of the item Cc1cc(/C=C2\SC(=S)N(c3ccc(Br)cc3)C2=O)c(C)n1-c1cccc(-c2nnn[nH]2)c1 in your answer.
46.8

====

assay: Selectivity index, ratio of CC50 for human MT2 cells to EC50 for HIV1 3B; format: toxicity, cell-based; conditions: read-out: Ratio CC50/EC50
For each of the molecules below, state its selectivity ratio.
// return a plain number; no unit text

Complete the entry with selectivity ratio for Cc1cc(/C=C2\NC(=O)N(c3cccc(C(F)(F)F)c3)C2=O)c(C)n1-c1cccc(-c2nnn[nH]2)c1
1.6

Please indicate selectivity ratio recorded for CCOC(=O)/C(C#N)=C/c1cc(C)n(-c2cccc(-c3nnn[nH]3)c2)c1C
4.3

Output selectivity ratio of Cc1ccc(C)n1-c1cccc(-c2nnn[nH]2)c1
32

Fill in selectivity ratio for record Cc1cc(/C=C2\SC(=S)N(c3cccc(C(F)(F)F)c3)C2=O)c(C)n1-c1cccc(-c2nnn[nH]2)c1
2.3

Note down selectivity ratio recorded for Cc1cc(/C=C2\SC(=S)N(c3ccc(Br)cc3)C2=O)c(C)n1-c1cccc(-c2nnn[nH]2)c1
21

Return selectivity ratio (reported value) for this molecule: Cc1cc(/C=C2\SC(=S)N(c3ccccc3)C2=O)c(C)n1-c1cccc(-c2nnn[nH]2)c1
19

Kindly indicate its recorded selectivity ratio. Item: Cc1cc(/C=C2\SC(=S)N(Cc3ccccc3)C2=O)c(C)n1-c1cccc(-c2nnn[nH]2)c1
12

Determine its reported selectivity ratio: Cc1cc(/C=C2\SC(=S)N(c3cccc(O)c3)C2=O)c(C)n1-c1cccc(-c2nnn[nH]2)c1
5.7

Provide one value: measured selectivity ratio of Cc1cc(/C=C2\SC(=S)N(c3cccc(Br)c3)C2=O)c(C)n1-c1cccc(-c2nnn[nH]2)c1
2.3

Identify the reported selectivity ratio for the following entry. Cc1cc(/C=C2\SC(=S)N(c3ccc(O)cc3)C2=O)c(C)n1-c1cccc(-c2nnn[nH]2)c1
1.8

Provide measured selectivity ratio value, entry: COc1ccc(N2C(=O)N/C(=C\c3cc(C)n(-c4cccc(-c5nnn[nH]5)c4)c3C)C2=O)cc1
2

Given the molecule Cc1cc(/C=C/[N+](=O)[O-])c(C)n1-c1cccc(-c2nnn[nH]2)c1 , write its reported selectivity ratio.
2.7

Provide measured selectivity ratio value, entry: COc1ccc(N2C(=O)/C(=C/c3cc(C)n(-c4cccc(-c5nnn[nH]5)c4)c3C)SC2=S)cc1
1.8

Consider the molecule COc1cccc(N2C(=O)/C(=C/c3cc(C)n(-c4cccc(-c5nnn[nH]5)c4)c3C)SC2=S)c1 . State its measured selectivity ratio.
6.8

Dear colleague, please send me the reported selectivity ratio for Cc1cc(/C=C2\SC(=S)N(c3cccc([N+](=O)[O-])c3)C2=O)c(C)n1-c1cccc(-c2nnn[nH]2)c1 when you can.
3.2

Find the measured selectivity ratio of Cc1cc(/C=C2\SC(=S)N(c3ccc(C(F)(F)F)cc3)C2=O)c(C)n1-c1cccc(-c2nnn[nH]2)c1 and report it.
2.1

Give selectivity ratio for CCOC(=O)C(=Cc1cc(C)n(-c2cccc(-c3nnn[nH]3)c2)c1C)C(=O)OCC
4.5

Specify reported selectivity ratio for the molecule shown: Cc1cc(/C=C2\SC(=S)N(CCc3ccccc3)C2=O)c(C)n1-c1cccc(-c2nnn[nH]2)c1
11

====

tested on: Human immunodeficiency virus 1; experiment: Antiviral activity against HIV1 3B infected in human MT2 cells assessed as inhibition of p24 production after 4 days by ELISA; assay type: functional, organism-based; conditions: Human immunodeficiency virus 1, 3B, MT2, 96 h; read-out: EC50
Can you tell me pEC50 for the items I'm about to list?
Remember, pEC50 is on a log scale: it is -log10 of the molar concentration.

Report measured pEC50; entry is Cc1cc(/C=C2\SC(=S)N(c3ccc(O)cc3)C2=O)c(C)n1-c1cccc(-c2nnn[nH]2)c1
4.59

Fill in reported pEC50 for this entry: Cc1cc(/C=C2\SC(=S)N(c3cccc(C(F)(F)F)c3)C2=O)c(C)n1-c1cccc(-c2nnn[nH]2)c1
5.17

Fill in pEC50 for record Cc1cc(/C=C2\SC(=S)N(c3ccc(Br)cc3)C2=O)c(C)n1-c1cccc(-c2nnn[nH]2)c1
5.66

Please give measured pEC50 of the following entry: Cc1cc(/C=C2\SC(=S)N(c3cccc([N+](=O)[O-])c3)C2=O)c(C)n1-c1cccc(-c2nnn[nH]2)c1
4.62

Give the measured pEC50 for CCOC(=O)C(=Cc1cc(C)n(-c2cccc(-c3nnn[nH]3)c2)c1C)C(=O)OCC
4.76

Dear colleague, please send me the reported pEC50 for Cc1cc(/C=C2\SC(=S)N(c3ccc(C(F)(F)F)cc3)C2=O)c(C)n1-c1cccc(-c2nnn[nH]2)c1 when you can.
4.88

Using the record for COc1ccc(N2C(=O)/C(=C/c3cc(C)n(-c4cccc(-c5nnn[nH]5)c4)c3C)SC2=S)cc1 , state its measured pEC50.
4.32

Answer with the recorded pEC50 for the molecule listed here: Cc1cc(/C=C2\SC(=S)N(c3ccccc3)C2=O)c(C)n1-c1cccc(-c2nnn[nH]2)c1
5.49

Name the recorded pEC50 of the item CCOC(=O)/C(C#N)=C/c1cc(C)n(-c2cccc(-c3nnn[nH]3)c2)c1C in your answer.
4.74

Identify pEC50 associated with the molecule Cc1cc(/C=C2\SC(=S)N(c3cccc(Br)c3)C2=O)c(C)n1-c1cccc(-c2nnn[nH]2)c1
5.01

Please supply the value of reported pEC50 for the item Cc1cc(/C=C2\NC(=O)N(c3cccc(C(F)(F)F)c3)C2=O)c(C)n1-c1cccc(-c2nnn[nH]2)c1
4.31

State, in one line, measured pEC50 of COc1cccc(N2C(=O)/C(=C/c3cc(C)n(-c4cccc(-c5nnn[nH]5)c4)c3C)SC2=S)c1
5.22
